# test_system: Thymidine kinase (Human herpesvirus 2, UniProt Q6L709)
# Sequence (Q6L709 whole entry): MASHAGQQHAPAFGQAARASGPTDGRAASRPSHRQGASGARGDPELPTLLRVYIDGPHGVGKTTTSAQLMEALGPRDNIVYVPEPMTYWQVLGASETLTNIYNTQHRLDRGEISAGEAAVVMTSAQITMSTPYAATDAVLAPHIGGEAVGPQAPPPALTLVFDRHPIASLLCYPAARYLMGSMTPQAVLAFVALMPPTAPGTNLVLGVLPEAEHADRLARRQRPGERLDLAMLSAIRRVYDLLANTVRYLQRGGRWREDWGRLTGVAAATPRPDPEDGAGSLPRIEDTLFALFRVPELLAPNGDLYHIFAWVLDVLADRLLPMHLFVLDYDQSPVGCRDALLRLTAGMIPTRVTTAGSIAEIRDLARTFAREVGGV
# test: Inhibitory activity against HSV-2 Thymidine Kinase (HSV-2 TK)
pIC50: −log10 of the molar value.

>  <compound>
CCc1cn([C@H]2C[C@H](O)[C@@H](CNC(=O)C3c4ccccc4Oc4ccccc43)O2)c(=O)[nH]c1=O

>  <test_system>
Thymidine kinase (Human herpesvirus 2, UniProt Q6L709)

>  <pIC50>
9.89

$$$$
>  <compound>
CCc1cn([C@@H]2O[C@H](CNC(=O)C3c4ccccc4C(C(F)(F)F)(C(F)(F)F)c4ccccc43)[C@@H](O)[C@@H]2F)c(=O)[nH]c1=O

>  <test_system>
Thymidine kinase (Human herpesvirus 2, UniProt Q6L709)

>  <pIC50>
9.96

$$$$
>  <compound>
CCc1cn([C@@H]2O[C@H](CNC(=O)C3c4ccccc4S(=O)(=O)c4c(Cl)cccc43)[C@@H](O)[C@@H]2F)c(=O)[nH]c1=O (some centres not stated)

>  <test_system>
Thymidine kinase (Human herpesvirus 2, UniProt Q6L709)

>  <pIC50>
10.05

$$$$
>  <compound>
CCc1cn([C@H]2C[C@H](O)[C@@H](CNC(=O)C3c4ccccc4Sc4ccccc43)O2)c(=O)[nH]c1=O

>  <test_system>
Thymidine kinase (Human herpesvirus 2, UniProt Q6L709)

>  <pIC50>
8.85

$$$$
>  <compound>
CCc1cn([C@H]2C[C@H](O)[C@@H](CNC(=O)Cc3c(Cl)cccc3Cl)O2)c(=O)[nH]c1=O

>  <test_system>
Thymidine kinase (Human herpesvirus 2, UniProt Q6L709)

>  <pIC50>
8.48

$$$$
>  <compound>
CCc1cn([C@H]2C[C@H](O)[C@@H](CNC(=O)C3c4ccccc4-c4ccccc43)O2)c(=O)[nH]c1=O

>  <test_system>
Thymidine kinase (Human herpesvirus 2, UniProt Q6L709)

>  <pIC50>
8.28

$$$$
>  <compound>
CCc1cn([C@@H]2O[C@H](CNC(=O)C3c4ccccc4Sc4c(Cl)cccc43)[C@@H](O)[C@@H]2F)c(=O)[nH]c1=O (some centres not stated)

>  <test_system>
Thymidine kinase (Human herpesvirus 2, UniProt Q6L709)

>  <pIC50>
9.68

$$$$
>  <compound>
CCc1cn([C@@H]2O[C@H](CNC(=O)C3c4cccc(Cl)c4Oc4c(Cl)cccc43)[C@@H](O)[C@@H]2F)c(=O)[nH]c1=O

>  <test_system>
Thymidine kinase (Human herpesvirus 2, UniProt Q6L709)

>  <pIC50>
10.00

$$$$
>  <compound>
CCc1cn([C@H]2C[C@H](O)[C@@H](CNC(=O)c3c4ccccc4cc4ccccc34)O2)c(=O)[nH]c1=O

>  <test_system>
Thymidine kinase (Human herpesvirus 2, UniProt Q6L709)

>  <pIC50>
6.38

$$$$
>  <compound>
CCc1cn([C@@H]2O[C@H](CNC(=O)C3c4ccccc4C(C)(C)c4ccccc43)[C@@H](O)[C@@H]2F)c(=O)[nH]c1=O

>  <test_system>
Thymidine kinase (Human herpesvirus 2, UniProt Q6L709)

>  <pIC50>
9.55

$$$$
>  <compound>
CCc1cn([C@@H]2O[C@H](CNC(=O)C3c4ccccc4Oc4ccccc43)[C@@H](O)[C@@H]2F)c(=O)[nH]c1=O

>  <test_system>
Thymidine kinase (Human herpesvirus 2, UniProt Q6L709)

>  <pIC50>
9.96

$$$$
>  <compound>
CCc1cn([C@@H]2O[C@H](CNC(=O)C3c4ccccc4Oc4c(Cl)cccc43)[C@@H](O)[C@@H]2F)c(=O)[nH]c1=O (some centres not stated)

>  <test_system>
Thymidine kinase (Human herpesvirus 2, UniProt Q6L709)

>  <pIC50>
9.85

$$$$
>  <compound>
CCc1cn([C@H]2C[C@H](O)[C@@H](CNC(=O)Cc3ccccc3Cl)O2)c(=O)[nH]c1=O

>  <test_system>
Thymidine kinase (Human herpesvirus 2, UniProt Q6L709)

>  <pIC50>
7.52

$$$$
>  <compound>
CCc1cn([C@@H]2O[C@H](CNC(=O)C3c4ccccc4Oc4c(-c5ccccc5)cccc43)[C@@H](O)[C@@H]2F)c(=O)[nH]c1=O (some centres not stated)

>  <test_system>
Thymidine kinase (Human herpesvirus 2, UniProt Q6L709)

>  <pIC50>
9.85

$$$$
>  <compound>
CCc1cn([C@H]2C[C@H](O)[C@@H](CNC(=O)Cc3ccccc3)O2)c(=O)[nH]c1=O

>  <test_system>
Thymidine kinase (Human herpesvirus 2, UniProt Q6L709)

>  <pIC50>
6.52

$$$$
>  <compound>
CCc1cn([C@@H]2O[C@H](CNC(=O)C3c4ccccc4Oc4c(OC)cccc43)[C@@H](O)[C@@H]2F)c(=O)[nH]c1=O (some centres not stated)

>  <test_system>
Thymidine kinase (Human herpesvirus 2, UniProt Q6L709)

>  <pIC50>
9.68

$$$$
>  <compound>
CCc1cn([C@@H]2O[C@H](CNC(=O)C3c4cccc(C)c4Oc4c(C)cccc43)[C@@H](O)[C@@H]2F)c(=O)[nH]c1=O

>  <test_system>
Thymidine kinase (Human herpesvirus 2, UniProt Q6L709)

>  <pIC50>
9.37

$$$$
